# Experimental Protocol: inhibitors of CD8+ T cell–vesicle binding, dose response, mouse 2C CD8+ T cells, flow cytometry (AID 485284);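 further: drosophila derived vesicles carrying Ld MHC with QL9 peptide plus B7-1 and ICAM-1; vesicle binding seen as anti-B7-1 PE fluorescence on CD8 gated cells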
# Measurement Parameters: 2C mouse CD8+ T cell-exosome binding; at 45 µM (top of the series)
Results with a measured potency or affinity are listed apart.
Items are presented alongside their recorded binding remaining, % of control.
Express it in %; write the number only.

**Query** Dear colleague, I am looking for the recorded binding remaining, % of control of the following molecule: CCOC(=O)c1cc2occc2n1CC(=O)NC1CCC(C)CC1 (stereo not given)
**Result** 77

**Query** Also `O=C(Oc1ccc(C(=S)N2CCOCC2)cc1)c1ccc(F)cc1` , if possible.
**Result** 63.3

**Query** Can you check CCC(C)S(=O)(=O)c1snnc1C (stereo not given) next?
**Result** 164

---

# Experimental Protocol: inhibitors of CD8+ T cell–vesicle binding, dose response, mouse 2C CD8+ T cells, flow cytometry (AID 485284)
# Measurement Parameters: 2C mouse CD8+ T cell-exosome binding; at 45 µM (top of the series)
Entries with a potency or affinity are not part of this list.
Observable: binding remaining, % of control (%)
Respond with the bare value in %.

O=C1CCCc2sccc2N1; 106
Cc1cccc(OCC(=O)Nc2ccccc2C(=O)N2CCOCC2)c1; 161

Next molecule, binding remaining, % of control to be filled in.
**Query** Could you share which binding remaining, % of control value was measured for `COc1ccc([C@H]2CC(=O)C=C(c3cccc(Cl)c3)C2)cc1` ?
**Result** 141

---

# Lookup of reported binding remaining, % of control keyed by entry
# Experimental Protocol: inhibitors of CD8+ T cell–vesicle binding, dose response, mouse 2C CD8+ T cells, flow cytometry (AID 485284);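 further: drosophila derived vesicles carrying Ld MHC with QL9 peptide plus B7-1 and ICAM-1; vesicle binding seen as anti-B7-1 PE fluorescence on CD8 gated cells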
# Measurement Parameters: 2C mouse CD8+ T cell-exosome binding; at 45 µM (top of the series)
Potency and affinity values are given separately.
Kindly answer with a numeric value in %, unit omitted.

Field: example entries. Status: answers known.
CCN(Cc1ccccc1)C(=O)c1ccc(C)c(S(=O)(=O)N2CCCCC2)c1; 92.8
COc1ccccc1NC(=O)Cn1cnc2sc(C)c(S(=O)(=O)N3CCCCC3)c2c1=O; 115

**Query** Please look up its binding remaining, % of control: `C=CCNC(=S)Nc1sc2c(c1C(N)=O)CCCC2`
**Result** 163

**Query** Next record, please: `CN(CC(=O)Nc1cccc(F)c1)C(=O)c1ccc(S(=O)(=O)N2CCCC2)cc1`
**Result** 21.6

**Query** Try the compound `CC(C)(C)NC(=O)COc1ccc(CNCc2ccccn2)cc1`
**Result** 120

**Query** Check `O=C(CN1C(=O)NC2(CCCCCC2)C1=O)N1CCN(c2ccccc2)CC1` too.
**Result** 158

**Query** Consider next the compound `COc1ccc(-c2cc(CNS(=O)(=O)c3ccc(NC(C)=O)cc3)on2)cc1` in the same way.
**Result** 101

**Query** Repeat with `COc1ccc([C@H]2CC(=O)C=C(c3ccc4c5c(cccc35)CC4)C2)cc1`
**Result** 119

**Query** Again, but for `NC(=O)C1CCN(c2nc(-c3cc4ccccc4o3)cs2)CC1`
**Result** 44.2

**Query** Would you kindly repeat that for COc1ccc(CNC(=O)COC(=O)CCN2C(=O)C3CC=CCC3C2=O)cc1OC (configuration not stated) ?
**Result** 190

---

# Experimental Protocol: inhibitors of CD8+ T cell–vesicle binding, dose response, mouse 2C CD8+ T cells, flow cytometry (AID 485284);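 further: drosophila derived vesicles carrying Ld MHC with QL9 peptide plus B7-1 and ICAM-1; vesicle binding seen as anti-B7-1 PE fluorescence on CD8 gated cells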
# Measurement Parameters: 2C mouse CD8+ T cell-exosome binding; at 45 µM (top of the series)
Entries with a potency or affinity are not part of this list.
Observable: binding remaining, % of control (%)
Numbers only here, please. The scale is %.

**Query** Please report the recorded binding remaining, % of control for `CC(=O)c1cccc(NC(=O)c2ccncc2)c1` .
**Result** 35.3

---

# Experimental Protocol: inhibitors of CD8+ T cell–vesicle binding, dose response, mouse 2C CD8+ T cells, flow cytometry (AID 485284);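 further: drosophila derived vesicles carrying Ld MHC with QL9 peptide plus B7-1 and ICAM-1; vesicle binding seen as anti-B7-1 PE fluorescence on CD8 gated cells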
# Measurement Parameters: 2C mouse CD8+ T cell-exosome binding; at 45 µM (top of the series)
Measured potencies and affinities stand elsewhere.
Observable: binding remaining, % of control
Number first, unit second: that is the form wanted.

CN(CC(=O)Nc1cc(S(=O)(=O)N2CCCC2)ccc1Cl)Cc1ccc2c(c1)OCO2; 63%
COc1ccc(NC(=O)CSCC(=O)Nc2cccc(S(=O)(=O)N3CCCCCC3)c2)cc1; 44.4%
COc1ccc(NC(=O)Nc2c(O)ccc3ccccc23)cc1; 76.2%
O=C(Cc1cccc(NC(=O)C2CCCN(C(=O)C3CC3)C2)c1)Nc1cccc(C(=O)N2CCCC2)c1 (stereo unspecified); 47.2%
COc1ccccc1C(=O)COC(=O)C1CCN(S(=O)(=O)c2ccc(C)c(C)c2)CC1; 24.2%

// moving on: another record for binding remaining, % of control
**Query** Please look up its binding remaining, % of control: `COc1ccccc1CNC(=O)c1ccc(N(C)S(=O)(=O)c2ccc(C)cc2)cc1`
**Result** 156%
